- Target Desc: catalytic domain of human Cathepsin B (Homo sapiens (Human), UniProt P07858)
- Test Method Notes: Enzymatic activity of the catalytic domain of human Cathepsin B (fluorogenic substrate Z-Arg-Arg-AMC)
- Type: biochemical
- Condition Context: Ki from IC50 by Cheng-Prusoff equation
- Protocol: The enzyme is activated as follows: 25 μg of enzyme are diluted with acetate buffer to a concentration of 12.5 μg/ml. […] Both in reaction 1 and in reaction 2, after addition of 10 μl of a 3% (v/v) aqueous dimethyl sulfoxide solution which contains 0.3 mmol/l of the substrate, the enzyme reaction is monitored by fluorescence spectroscopy (360 nm (excitation)/465 nm (emission)). The enzyme activity is shown as fluorescence increase/minute. […]
Observed Property: Ki (nM)
Respond with the bare value in nM.

A selection of reference data follows.
given_smiles=CC(F)(F)C[C@H](NC(=O)N1CCC2(CC1)CC2)C(=O)NC1(C#N)CC1 target_desc="catalytic domain of human Cathepsin B (Homo sapiens (Human), UniProt P07858)" unit_name=nM result_value=260
given_smiles=CC(F)(F)C[C@H](NC(=O)N1CCC2(CCCC2)CC1)C(=O)NC1(C#N)CC1 target_desc="catalytic domain of human Cathepsin B (Homo sapiens (Human), UniProt P07858)" unit_name=nM result_value=44
given_smiles=CC(F)(F)C[C@H](NC(=O)N1CCC2(CC1)NCC(C)(C)CO2)C(=O)NC1(C#N)CC1 target_desc="catalytic domain of human Cathepsin B (Homo sapiens (Human), UniProt P07858)" unit_name=nM result_value=1200
given_smiles=CC(F)(F)C[C@H](NC(=O)N1CC2(CCN(C3CC3)CC2)C1)C(=O)NC1(C#N)CC1 target_desc="catalytic domain of human Cathepsin B (Homo sapiens (Human), UniProt P07858)" unit_name=nM result_value=2300
given_smiles=CC(F)(F)C[C@H](NC(=O)N1CCC2(CC1)CC(=O)N(CC1CC1)C2)C(=O)NC1(C#N)CC1 target_desc="catalytic domain of human Cathepsin B (Homo sapiens (Human), UniProt P07858)" unit_name=nM result_value=310
given_smiles=CC(F)(F)C[C@H](NC(=O)N1CCC2(CC1)C(=O)NCN2c1ccccc1)C(=O)NC1(C#N)CC1 target_desc="catalytic domain of human Cathepsin B (Homo sapiens (Human), UniProt P07858)" unit_name=nM result_value=4500
given_smiles=CCCC(F)(F)C[C@H](NC(=O)N1CCC2(CC1)CCN(C1CC1)CC2)C(=O)NC1(C#N)CC1 target_desc="catalytic domain of human Cathepsin B (Homo sapiens (Human), UniProt P07858)" unit_name=nM result_value=84
given_smiles=CC(F)(F)C[C@H](NC(=O)N1CCC2(CC1)CCC(C)(C)O2)C(=O)NC1(C#N)CC1 target_desc="catalytic domain of human Cathepsin B (Homo sapiens (Human), UniProt P07858)" unit_name=nM result_value=930

QUERY: Could you tell me which Ki is on file for CC(F)(F)C[C@H](NC(=O)N1CCC2(CCCCC2)C1)C(=O)NC1(C#N)CC1 ?
RESULT: 220

QUERY: Could you tell me which Ki is on file for N#CC1(NC(=O)[C@H](CC(F)(F)Cc2ccccc2)NC(=O)N2CCC3(CC2)CCN(C2CC2)CC3)CC1 ?
RESULT: 100

QUERY: Could you tell me which Ki is on file for CC(F)(F)C[C@H](NC(=O)N1CCC2(CC1)OCCO2)C(=O)NC1(C#N)CC1 ?
RESULT: 560

QUERY: Could you tell me which Ki is on file for CCCC(F)(F)C[C@H](NC(=O)N1CCC2(CC1)CC2)C(=O)NC1(C#N)CC1 ?
RESULT: 62

QUERY: Could you tell me which Ki is on file for CN1CCC(C#N)(NC(=O)[C@H](CC(C)(F)F)NC(=O)N2CCC3(CC2)CC3)CC1 ?
RESULT: 99

QUERY: Could you tell me which Ki is on file for CC(F)(F)C[C@H](NC(=O)N1CCOC12CCCCC2)C(=O)NC1(C#N)CC1 ?
RESULT: 3900

QUERY: Could you tell me which Ki is on file for CC(F)(F)C[C@H](NC(=O)N1CCC2(CC1)CCN(C1CC1)CC2)C(=O)NC1(C#N)CC1 ?
RESULT: 210
